Molecular target: GST-Aq-NF-kB (Amphimedon queenslandica, UniProt A9Y5G7 2-389)
Sequence: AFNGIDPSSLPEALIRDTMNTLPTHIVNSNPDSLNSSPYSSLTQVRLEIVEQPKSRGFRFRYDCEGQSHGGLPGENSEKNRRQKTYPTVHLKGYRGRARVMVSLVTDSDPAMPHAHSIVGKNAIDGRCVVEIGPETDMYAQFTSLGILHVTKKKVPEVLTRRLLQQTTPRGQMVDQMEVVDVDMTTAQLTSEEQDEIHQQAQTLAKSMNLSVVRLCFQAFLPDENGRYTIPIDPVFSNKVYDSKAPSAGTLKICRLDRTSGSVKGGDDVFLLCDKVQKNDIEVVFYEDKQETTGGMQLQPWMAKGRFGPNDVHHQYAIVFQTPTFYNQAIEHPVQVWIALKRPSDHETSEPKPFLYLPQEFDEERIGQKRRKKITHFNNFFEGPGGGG
Assay: protein-binding microarray (PBM); PBM: ~300 nM protein, 6 mM HEPES pH 7.8, 80 mM KCl, 0.5 mM EDTA, 0.5 mM EGTA, 6% glycerol, 35 ng/ul poly-dIdC, 1% milk, 1 h, room temperature; high values mean tight binding
Conditions: dsDNA, one strand shown
Record true whenever binding signal is at 5 z-score or higher; record false when lower.

Problem: Exam item: decide whether the reported binding signal for CCGATTAACATCACCTTTTTCCCTGATGTTAATCGGGTCTTGATTCGCTTGACGCTGCTG is at least 5 z-score.
Result: false

Problem: Repeat for the following sequence: CCGATTAACATCAGGGAAAACCCTGATGTTAATCGGGTCTTGATTCGCTTGACGCTGCTG
Result: true

Problem: Repeat for the following sequence: CCGATTAACATCAGGGGAACCCATGATGTTAATCGGGTCTTGATTCGCTTGACGCTGCTG
Result: false

Problem: Repeat for the following sequence: CCGATTAACATCAGGGGAATCCATGATGTTAATCGGGTCTTGATTCGCTTGACGCTGCTG
Result: true

Problem: Repeat for the following sequence: CCGATTAACATCAGGGAAATAACTGATGTTAATCGGGTCTTGATTCGCTTGACGCTGCTG
Result: true

Problem: Repeat for the following sequence: CCGATTAACATCAGAAAAAACCCTGATGTTAATCGGGTCTTGATTCGCTTGACGCTGCTG
Result: true

Problem: Repeat for the following sequence: CCGATTAACATCAGGGCATACCCTGATGTTAATCGGGTCTTGATTCGCTTGACGCTGCTG
Result: true

Problem: Repeat for the following sequence: CCGATTAACATCAGGGGTATTTATGATGTTAATCGGGTCTTGATTCGCTTGACGCTGCTG
Result: true

----------
Could you please report measured binding signal for the items listed next?
biological target: GST-Hu-p50 (Homo sapiens, UniProt P19838 7-356); assay: protein-binding microarray (PBM); PBM: ~300 nM protein, 6 mM HEPES pH 7.8, 80 mM KCl, 0.5 mM EDTA, 0.5 mM EGTA, 6% glycerol, 35 ng/ul poly-dIdC, 1% milk, 1 h, room temperature; high values mean tight binding; conditions: dsDNA, one strand shown
Sequence (P19838 7-356): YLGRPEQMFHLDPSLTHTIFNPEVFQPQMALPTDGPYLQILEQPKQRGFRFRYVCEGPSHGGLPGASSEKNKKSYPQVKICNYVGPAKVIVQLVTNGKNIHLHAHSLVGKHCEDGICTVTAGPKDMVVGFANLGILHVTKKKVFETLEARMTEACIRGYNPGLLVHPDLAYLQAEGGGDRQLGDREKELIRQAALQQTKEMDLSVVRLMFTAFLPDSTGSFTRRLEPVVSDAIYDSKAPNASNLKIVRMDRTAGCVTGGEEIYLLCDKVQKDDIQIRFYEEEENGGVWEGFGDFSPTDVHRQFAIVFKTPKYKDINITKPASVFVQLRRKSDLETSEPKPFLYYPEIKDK
Please respond with the number in z-score and leave the unit unwritten.

Problem: Item CCGATTAACATCAGGGGAATATATGATGTTAATCGGGTCTTGATTCGCTTGACGCTGCTG has what recorded binding signal?
Result: 6.01

Problem: Repeat for the following sequence: CCGATTAACATCAAGGTGTTTCCTGATGTTAATCGGGTCTTGATTCGCTTGACGCTGCTG
Result: 3.43

Problem: Repeat for the following sequence: CCGATTAACATCACAATTTCCCCTGATGTTAATCGGGTCTTGATTCGCTTGACGCTGCTG
Result: 6.74

Problem: Repeat for the following sequence: CCGATTAACATCAAATCATTCCCTGATGTTAATCGGGTCTTGATTCGCTTGACGCTGCTG
Result: 1.78

Problem: Repeat for the following sequence: CCGATTAACATCATATTGGGAAATGATGTTAATCGGGTCTTGATTCGCTTGACGCTGCTG
Result: 1.12

Problem: Repeat for the following sequence: CCGATTAACATCACGGGGTTTTCTGATGTTAATCGGGTCTTGATTCGCTTGACGCTGCTG
Result: 5.61

Problem: Repeat for the following sequence: CCGATTAACATCACTATATTCCCTGATGTTAATCGGGTCTTGATTCGCTTGACGCTGCTG
Result: 1.77

Problem: Repeat for the following sequence: CCGATTAACATCACGTACTCCCCTGATGTTAATCGGGTCTTGATTCGCTTGACGCTGCTG
Result: 2.83

Problem: Repeat for the following sequence: CCGATTAACATCAAATACCCCCATGATGTTAATCGGGTCTTGATTCGCTTGACGCTGCTG
Result: 5.11

----------
biological target: GST-Hu-p50 (Homo sapiens, UniProt P19838 7-356); assay: protein-binding microarray (PBM); PBM: ~300 nM protein, 6 mM HEPES pH 7.8, 80 mM KCl, 0.5 mM EDTA, 0.5 mM EGTA, 6% glycerol, 35 ng/ul poly-dIdC, 1% milk, 1 h, room temperature; high values mean tight binding; conditions: dsDNA, one strand shown
Could you please report measured binding signal for the items listed next?
Please respond with the number in z-score and leave the unit unwritten.

Problem: Item CCGATTAACATCAAAAAAACCCTTGATGTTAATCGGGTCTTGATTCGCTTGACGCTGCTG has what recorded binding signal?
Result: 5.45

Problem: Repeat for the following sequence: CCGATTAACATCAAGGGGGATACTGATGTTAATCGGGTCTTGATTCGCTTGACGCTGCTG
Result: 5.48

Problem: Repeat for the following sequence: CCGATTAACATCAGGAATTTTTATGATGTTAATCGGGTCTTGATTCGCTTGACGCTGCTG
Result: 1.39

Problem: Repeat for the following sequence: CCGATTAACATCAGGGCACCCCCTGATGTTAATCGGGTCTTGATTCGCTTGACGCTGCTG
Result: 4.75

Problem: Repeat for the following sequence: CCGATTAACATCAGGCTATTCCCTGATGTTAATCGGGTCTTGATTCGCTTGACGCTGCTG
Result: 1.4

Problem: Repeat for the following sequence: CCGATTAACATCAAAACACCCCTTGATGTTAATCGGGTCTTGATTCGCTTGACGCTGCTG
Result: 4.32

Problem: Repeat for the following sequence: CCGATTAACATCAAGATACCCCCTGATGTTAATCGGGTCTTGATTCGCTTGACGCTGCTG
Result: 4.66

Problem: Repeat for the following sequence: CCGATTAACATCACGGGAAAATCTGATGTTAATCGGGTCTTGATTCGCTTGACGCTGCTG
Result: 3.87

Problem: Repeat for the following sequence: CCGATTAACATCAGGGAAAGACCTGATGTTAATCGGGTCTTGATTCGCTTGACGCTGCTG
Result: 3.67

Problem: Repeat for the following sequence: CCGATTAACATCACACATTCCCCTGATGTTAATCGGGTCTTGATTCGCTTGACGCTGCTG
Result: 5.28

Problem: Repeat for the following sequence: CCGATTAACATCAGAAGTCCCCCTGATGTTAATCGGGTCTTGATTCGCTTGACGCTGCTG
Result: 6.36

Problem: Repeat for the following sequence: CCGATTAACATCATTCCGGGAAATGATGTTAATCGGGTCTTGATTCGCTTGACGCTGCTG
Result: 1.99

Problem: Repeat for the following sequence: CCGATTAACATCAGTGGGAAAAATGATGTTAATCGGGTCTTGATTCGCTTGACGCTGCTG
Result: 3.34

Problem: Repeat for the following sequence: CCGATTAACATCAAGGGAATTTCTGATGTTAATCGGGTCTTGATTCGCTTGACGCTGCTG
Result: 5.75

Problem: Repeat for the following sequence: CCGATTAACATCACAACTTTCCCTGATGTTAATCGGGTCTTGATTCGCTTGACGCTGCTG
Result: 4.21

Problem: Repeat for the following sequence: CCGATTAACATCAGGAGATCCCCTGATGTTAATCGGGTCTTGATTCGCTTGACGCTGCTG
Result: 5.88

Problem: Repeat for the following sequence: CCGATTAACATCAGGGGAATTAATGATGTTAATCGGGTCTTGATTCGCTTGACGCTGCTG
Result: 6.52

Problem: Repeat for the following sequence: CCGATTAACATCAGGGAAAATACTGATGTTAATCGGGTCTTGATTCGCTTGACGCTGCTG
Result: 4.76

----------
Molecular target: GST-Aq-NF-kB (Amphimedon queenslandica, UniProt A9Y5G7 2-389)
Sequence: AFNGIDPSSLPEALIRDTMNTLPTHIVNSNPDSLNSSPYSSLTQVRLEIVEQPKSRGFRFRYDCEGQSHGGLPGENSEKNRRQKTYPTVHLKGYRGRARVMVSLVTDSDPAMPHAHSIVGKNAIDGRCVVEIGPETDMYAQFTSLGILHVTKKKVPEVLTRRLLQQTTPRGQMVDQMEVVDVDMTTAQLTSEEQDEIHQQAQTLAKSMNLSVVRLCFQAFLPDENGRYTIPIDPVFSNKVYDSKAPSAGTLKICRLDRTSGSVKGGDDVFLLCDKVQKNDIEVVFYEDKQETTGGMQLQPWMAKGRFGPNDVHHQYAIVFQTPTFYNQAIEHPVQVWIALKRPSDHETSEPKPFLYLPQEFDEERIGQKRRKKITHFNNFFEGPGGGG
Test: protein-binding microarray (PBM); PBM: ~300 nM protein, 6 mM HEPES pH 7.8, 80 mM KCl, 0.5 mM EDTA, 0.5 mM EGTA, 6% glycerol, 35 ng/ul poly-dIdC, 1% milk, 1 h, room temperature; Ap Aiptasia and Nv Nematostella (sea anemones) / Co Capsaspora / Aq Amphimedon (sponge) / Dm Drosophila / Hu human; RHD is the Rel homology domain; high values mean tight binding
Settings: dsDNA, one strand shown
Record fulfilled whenever binding signal is at 5 z-score or higher; record not fulfilled when lower.

Problem: Exam item: decide whether the reported binding signal for CCGATTAACATCACACCACCCCCTGATGTTAATCGGGTCTTGATTCGCTTGACGCTGCTG is at least 5 z-score.
Result: not fulfilled

Problem: Repeat for the following sequence: CCGATTAACATCAGGACTCCCCATGATGTTAATCGGGTCTTGATTCGCTTGACGCTGCTG
Result: not fulfilled

Problem: Repeat for the following sequence: CCGATTAACATCAAGTGTTTCCCTGATGTTAATCGGGTCTTGATTCGCTTGACGCTGCTG
Result: not fulfilled

Problem: Repeat for the following sequence: CCGATTAACATCATGGGGAGGAATGATGTTAATCGGGTCTTGATTCGCTTGACGCTGCTG
Result: not fulfilled

Problem: Repeat for the following sequence: CCGATTAACATCAAAAACCCCCATGATGTTAATCGGGTCTTGATTCGCTTGACGCTGCTG
Result: fulfilled

Problem: Repeat for the following sequence: CCGATTAACATCAAATTCCCTCGTGATGTTAATCGGGTCTTGATTCGCTTGACGCTGCTG
Result: not fulfilled

Problem: Repeat for the following sequence: CCGATTAACATCAGGGAAAAACCTGATGTTAATCGGGTCTTGATTCGCTTGACGCTGCTG
Result: fulfilled

Problem: Repeat for the following sequence: CCGATTAACATCACGGCAACCCCTGATGTTAATCGGGTCTTGATTCGCTTGACGCTGCTG
Result: not fulfilled

Problem: Repeat for the following sequence: CCGATTAACATCAAGGATTTCCCTGATGTTAATCGGGTCTTGATTCGCTTGACGCTGCTG
Result: fulfilled

Problem: Repeat for the following sequence: CCGATTAACATCAGGGGGAAACCTGATGTTAATCGGGTCTTGATTCGCTTGACGCTGCTG
Result: fulfilled

Problem: Repeat for the following sequence: CCGATTAACATCAAGGGGAAATCTGATGTTAATCGGGTCTTGATTCGCTTGACGCTGCTG
Result: fulfilled

Problem: Repeat for the following sequence: CCGATTAACATCAGGGGCGCCCCTGATGTTAATCGGGTCTTGATTCGCTTGACGCTGCTG
Result: fulfilled

Problem: Repeat for the following sequence: CCGATTAACATCAGGACAACCCCTGATGTTAATCGGGTCTTGATTCGCTTGACGCTGCTG
Result: fulfilled

Problem: Repeat for the following sequence: CCGATTAACATCACCCCGCCCCCTGATGTTAATCGGGTCTTGATTCGCTTGACGCTGCTG
Result: not fulfilled

Problem: Repeat for the following sequence: CCGATTAACATCAGGGGAGTTACTGATGTTAATCGGGTCTTGATTCGCTTGACGCTGCTG
Result: fulfilled

Problem: Repeat for the following sequence: CCGATTAACATCAGGAATCACCCTGATGTTAATCGGGTCTTGATTCGCTTGACGCTGCTG
Result: not fulfilled

Problem: Repeat for the following sequence: CCGATTAACATCAAGTACCCCCCTGATGTTAATCGGGTCTTGATTCGCTTGACGCTGCTG
Result: not fulfilled

Problem: Repeat for the following sequence: CCGATTAACATCAATCACCCCCCTGATGTTAATCGGGTCTTGATTCGCTTGACGCTGCTG
Result: fulfilled
